- study target: recombinant USP30 (amino acids 57-517 of the human sequence) (Homo sapiens (Human))
- Sequence (Q70CQ3 57-517): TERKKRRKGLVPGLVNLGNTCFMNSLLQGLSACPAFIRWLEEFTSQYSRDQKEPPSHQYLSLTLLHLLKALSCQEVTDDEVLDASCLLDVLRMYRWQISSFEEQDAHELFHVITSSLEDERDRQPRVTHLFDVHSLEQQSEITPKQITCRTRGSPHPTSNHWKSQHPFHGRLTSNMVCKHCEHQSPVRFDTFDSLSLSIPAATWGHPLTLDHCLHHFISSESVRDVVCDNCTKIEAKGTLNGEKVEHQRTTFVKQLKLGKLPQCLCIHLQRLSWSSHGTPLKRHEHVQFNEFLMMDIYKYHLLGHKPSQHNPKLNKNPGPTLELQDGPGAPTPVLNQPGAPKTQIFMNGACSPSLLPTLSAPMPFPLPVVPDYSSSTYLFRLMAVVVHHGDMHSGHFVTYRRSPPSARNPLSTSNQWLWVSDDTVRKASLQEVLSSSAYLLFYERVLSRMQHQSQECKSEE
- experiment: In vitro USP30 biochemical assay (Ubiquitin-Rhodamine substrate)
- run parameters: 1.5 nM recombinant USP30, 25 nM Ubiquitin-Rhodamine, fluorescence
In this section, each of the compounds is paired with its reported IC50.

| compound structure | result |
| --- | --- |
| COc1cc(NC(=O)[C@H](CC2CCN(C)CC2)NC(=O)c2ccc(F)cc2)ccc1S(=O)(=O)NC(C)(C)CO | 0.05 to 1 µM |
| O=C(N[C@@H](CC1CCNCC1)C(=O)Nc1ccc(S(=O)(=O)NC2CCOCC2)nc1)c1ccc(F)cc1 | 0.05 to 1 µM |
| COc1cc(NC(=O)[C@@H]2C[C@@H](c3ccccc3)CN2C(=O)c2ccc(F)cc2)ccc1S(=O)(=O)NC1COC1 | 0.05 to 1 µM |

[Q] I'd like to know its IC50. The compound in question is `O=C(N[C@@H](CC1CCOCC1)C(=O)Nc1ccc(S(=O)(=O)NC2COC2)nc1)c1ccc(F)cc1`
[A] 0.05 to 1 µM

[Q] I'd like to know its IC50. The compound in question is `CC(C)(C)NS(=O)(=O)c1ccc(NC(=O)[C@H](Cc2ccc(-c3ccccc3)cc2)NC(=O)c2ccc(F)cc2)cc1`
[A] 0.05 to 1 µM

[Q] I'd like to know its IC50. The compound in question is `COc1cc(NC(=O)[C@@H]2C[C@@H](C3CCCCC3)CN2C(=O)c2ccc(F)cc2)ccc1S(=O)(=O)NC(C)(C)CO`
[A] 0.05 to 1 µM

----------
- study target: USP30 (Homo sapiens (Human), UniProt Q70CQ3)
- Sequence (Q70CQ3 whole entry): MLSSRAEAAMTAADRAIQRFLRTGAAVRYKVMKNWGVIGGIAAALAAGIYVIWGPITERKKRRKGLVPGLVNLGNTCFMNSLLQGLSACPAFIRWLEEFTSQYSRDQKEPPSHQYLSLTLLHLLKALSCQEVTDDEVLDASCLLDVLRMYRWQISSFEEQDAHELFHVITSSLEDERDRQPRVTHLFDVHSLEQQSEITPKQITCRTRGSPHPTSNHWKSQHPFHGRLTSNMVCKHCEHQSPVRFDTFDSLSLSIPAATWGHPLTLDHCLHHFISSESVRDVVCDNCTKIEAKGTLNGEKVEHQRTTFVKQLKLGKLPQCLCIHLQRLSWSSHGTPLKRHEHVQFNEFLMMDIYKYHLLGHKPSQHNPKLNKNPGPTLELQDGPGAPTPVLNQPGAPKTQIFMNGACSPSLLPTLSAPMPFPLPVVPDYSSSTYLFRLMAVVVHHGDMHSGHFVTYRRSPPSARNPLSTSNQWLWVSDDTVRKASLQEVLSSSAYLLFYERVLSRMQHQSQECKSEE
- experiment: Dundee MALDI-TOF mass spectrometry assay (K48-linked diubiquitin cleavage)
- Format: biochemical
- run parameters: USP30 25 ng/μl, K48-linked diubiquitin 5.6 μM, read-out: USP30 IC50 μM (avg)
In this section, each of the compounds is paired with its reported IC50.

Examples with their reported IC50 follow.
| compound | study target | IC50 |
| --- | --- | --- |
| CC(C)(C)NS(=O)(=O)c1ccc(NC(=O)[C@H](Cc2ccccc2)NC(=O)c2nccs2)cc1 [Compound I-168] | USP30 (Homo sapiens (Human), UniProt Q70CQ3) | < 0.05 µM |
| CC(C)(NS(=O)(=O)c1ccc(NC(=O)[C@H](CC2CCNCC2)NC(=O)c2ccc(F)cn2)cc1)C(F)(F)F [Compound I-199] | USP30 (Homo sapiens (Human), UniProt Q70CQ3) | 0.05 to 1 µM |
| Cn1ccc(N2CCC(C[C@H](NC(=O)c3ccc(F)cc3)C(=O)Nc3ccc(S(=O)(=O)NC(C)(C)C)nc3)CC2)n1 [Compound I-293] | USP30 (Homo sapiens (Human), UniProt Q70CQ3) | < 0.05 µM |
| CN1CCC(C[C@H](NC(=O)c2ccc(F)cc2)C(=O)Nc2ccc(S(=O)(=O)N[C@@H]3CCOC3)nc2)CC1 [Compound I-105] | USP30 (Homo sapiens (Human), UniProt Q70CQ3) | 0.05 to 1 µM |
| CC(CO)(CO)NS(=O)(=O)c1ccc(NC(=O)[C@H](Cc2ccccc2)NC(=O)c2ccc(F)cc2)cn1 [Compound I-148] | USP30 (Homo sapiens (Human), UniProt Q70CQ3) | 0.05 to 1 µM |

[Q] // lookup IC50 | system=USP30 (Homo sapiens (Human), UniProt Q70CQ3) | key= CC(=O)N1CCC(C[C@H](NC(=O)c2ccc(F)cc2)C(=O)Nc2ccc(S(=O)(=O)NC(C)(C)C)nc2)CC1 [Compound I-156]
[A] < 0.05 µM

[Q] // lookup IC50 | system=USP30 (Homo sapiens (Human), UniProt Q70CQ3) | key= C[C@@H](CO)NS(=O)(=O)c1ccc(NC(=O)[C@H](Cc2ccccc2)NC(=O)c2ccc(F)cc2)cn1 [Compound I-149]
[A] < 0.05 µM
